Tested on: Echinochloa crus-galli (ECHCG)
methodNotes: Glasshouse assay for herbicidal activity, pre-/post-emergence (percentage phytotoxicity)
Format: in vivo
experimentalSetup: Echinochloa crus-galli, pre-emergence, 480 h, Rate 250 g/ha; pre-emergence; visual assessment 20 DAA; 100%=total damage, 0%=no damage; read-out: Pre-emergence herbicidal activity (percentage phytotoxicity), ECHCG PRE
Kindly state pest or weed control at 250 g/ha for each of the entries shown.
One number for each entry, in %.

As a guide, the following entries are already answered.
compound	targetSystem	unitOfMeasure	pest or weed control at 250 g/ha
Cc1cc(C)c(C2C(=O)CC(CCNC(=O)Nc3ccc(F)cn3)C2=O)c(C)c1 (centres unmarked) [Compound A12]	Echinochloa crus-galli (ECHCG)	%	100
Cc1cc(C)c(C2C(=O)CC(CCNS(=O)(=O)c3ccccc3F)C2=O)c(C)c1 (centres unmarked) [Compound A76]	Echinochloa crus-galli (ECHCG)	%	40
Cc1cc(C)c(C2C(=O)CC(CCNC(=O)Nc3ccncn3)C2=O)c(C)c1 (centres unmarked) [Compound A95]	Echinochloa crus-galli (ECHCG)	%	70
CC#Cc1cc(C)c(C2C(=O)CC(CCNc3ccc(C(F)(F)F)cn3)C2=O)c(C)c1 (centres unmarked) [Compound A113]	Echinochloa crus-galli (ECHCG)	%	90

Please give pest or weed control at 250 g/ha, item by item, for the list that follows.
1. Cc1cc(C)c(C2C(=O)CC(CCNC(=O)N(C)c3ccccc3)C2=O)c(C)c1 (centres unmarked) [Compound A8]
2. CC#Cc1cc(C)c(C2C(=O)CC(CCNC(=O)N(C)c3ccccn3)C2=O)c(C)c1.Cl (centres unmarked) [Compound A22]
3. Cc1cc(C)c(C2C(=O)CC(CCNc3ccc([N+](=O)[O-])cc3C(F)(F)F)C2=O)c(C)c1 (centres unmarked) [Compound A104]
4. Cc1cc(C)c(C2C(=O)CC(CCNc3ncc(C(F)(F)F)cc3F)C2=O)c(C)c1 (centres unmarked) [Compound A97]
5. Cc1cc(-c2ncc(F)cc2F)cc(C)c1C1C(=O)CC(CCNC(=O)C2=NOC(C)(C)C2)C1=O (centres unmarked) [Compound A111]

1. 90
2. 100
3. 90
4. 90
5. 90

// for each compound below, give its pest or weed control at 250 g/ha
1. Cc1cc(C)c(C2C(=O)CC(CCNC(=O)Nc3cc(C(C)(C)F)ncn3)C2=O)c(C)c1 (centres unmarked) [Compound A16]
2. Cc1cc(C)c(C2C(=O)CC(CCNS(=O)(=O)c3ccc(F)cc3)C2=O)c(C)c1 (centres unmarked) [Compound A73]
3. Cc1cc(-n2cc(Cl)cn2)cc(C)c1C1C(=O)CC(CCNC(=O)Nc2ccc(F)cn2)C1=O (centres unmarked) [Compound A28]

100
30
90

---

Would you mind telling me the reported Post-emergence herbicidal activity against wheat (percentage phytotoxicity), +CQC of each entry?
Tested on: wheat
methodNotes: Post-emergence herbicidal activity against cereal crops (wheat) +/- safener, crop selectivity
Assay type: in vivo
experimentalSetup: 250 g/ha, plus safener cloquintocet-mexyl (CQC) applied at 50 g/ha, 100%=total damage to plant, 0%=no damage
Numbers only, in %.

The examples below pair each entry with its known result.
compound	dataValue
Cc1cc(-n2cc(Cl)cn2)cc(C)c1C1C(=O)CC(CCNC(=O)Nc2ncccn2)C1=O.Cl (stereo not shown)	10
Cc1cc(C)c(C2C(=O)CC(CCNC(=O)NC(=O)c3ccc(C(F)(F)F)c(F)c3)C2=O)c(C)c1 (stereo not shown)	40
Cc1cc(C)c(C2C(=O)CC(CCNC(=O)NC(=O)c3cc(F)c(Cl)cc3Cl)C2=O)c(C)c1 (stereo not shown)	40

I'm curious: which Post-emergence herbicidal activity against wheat (percentage phytotoxicity), +CQC was measured for Cc1cc(C)c(C2C(=O)CC(CCNC(=O)N3CCOCC3)C2=O)c(C)c1 (stereo not shown) tested on wheat?
0

---

Test system: Echinochloa crus-galli (ECHCG)
methodNotes: Glasshouse assay for herbicidal activity, pre-/post-emergence (percentage phytotoxicity)
Assay type: in vivo
experimentalSetup: Echinochloa crus-galli, post-emergence, 360 h, Rate 250 g/ha; post-emergence; visual assessment 15 DAA; 100%=total damage, 0%=no damage; read-out: Post-emergence herbicidal activity (percentage phytotoxicity), ECHCG POST
Experimental: Seeds of a variety of monocotyledonous and dicotyledonous test plants are sown in standard soil in pots. […] 15 days after application of the test herbicide (15DAA) (for post-emergence), and 20 days after application of the test herbicide (20DAA) (for pre-emergence), the test plants are evaluated visually, and an assessed percentage phytotoxicity score is given for each herbicidal application on each plant species (with 100%=total damage to plant; 0%=no damage to plant). […]
Give pest or weed control at 250 g/ha for every item shown.
Answers are plain numbers, in %.

Record excerpt, results attached:
compound	targetSystem	pest or weed control at 250 g/ha [%]
Cc1cc(C)c(C2C(=O)CC(CCNC(=O)NC(=O)c3cc(C(F)(F)F)ccc3Cl)C2=O)c(C)c1 (stereo not shown)	Echinochloa crus-galli (ECHCG)	80
Cc1cc(-c2ncc(Cl)cc2F)cc(C)c1C1C(=O)CC(CCNC(=O)N(C)c2ccccn2)C1=O.Cl (stereo not shown)	Echinochloa crus-galli (ECHCG)	100
Cc1cc(C)c(C2C(=O)CC(CCNC(=O)Nc3ccc(F)cn3)C2=O)c(C)c1 (stereo not shown)	Echinochloa crus-galli (ECHCG)	90

// next item, pest or weed control at 250 g/ha requested
Entry under review: Cc1cc(C)c(C2C(=O)CC(CCNC(=O)NC(=O)c3ccc(Cl)cc3F)C2=O)c(C)c1 (stereo not shown) . Reported pest or weed control at 250 g/ha?
90

---

Consider the following molecules; for each one, report its Post-emergence herbicidal activity against wheat (percentage phytotoxicity), +CQC.
System: wheat
methodNotes: Post-emergence herbicidal activity against cereal crops (wheat) +/- safener, crop selectivity
Type: in vivo
experimentalSetup: 250 g/ha, plus safener cloquintocet-mexyl (CQC) applied at 50 g/ha, 100%=total damage to plant, 0%=no damage
Experimental: Seeds of a variety of monocotyledonous and dicotyledonous test plants are sown in standard soil in pots. […] 15 days after application of the test herbicide (15DAA) (for post-emergence), and 20 days after application of the test herbicide (20DAA) (for pre-emergence), the test plants are evaluated visually, and an assessed percentage phytotoxicity score is given for each herbicidal application on each plant species (with 100%=total damage to plant; 0%=no damage to plant).
Answers are plain numbers, in %.

molecule	dataValue
Cc1cc(C)c(C2C(=O)CC(CCNC(=O)Nc3ccc(Br)cn3)C2=O)c(C)c1.Cl (stereo not shown)	50

Hi! Can you tell me Post-emergence herbicidal activity against wheat (percentage phytotoxicity), +CQC for each of these molecules?
1. Cc1cc(C)c(C2C(=O)CC(CCNC(=O)NC(=O)c3ccccc3)C2=O)c(C)c1 (stereo not shown)
2. Cc1cc(-n2cc(Cl)cn2)cc(C)c1C1C(=O)CC(CCNC(=O)N(C)c2ccccn2)C1=O (stereo not shown)
3. Cc1ccc(C(=O)NC(=O)NCCC2CC(=O)C(c3c(C)cc(C)cc3C)C2=O)cc1 (stereo not shown)

[70, 0, 0]

---

I'd be grateful if you could share measured Post-emergence herbicidal activity against wheat (percentage phytotoxicity), +CQC for these entries.
System: wheat
methodNotes: Post-emergence herbicidal activity against cereal crops (wheat) +/- safener, crop selectivity
Type: in vivo
experimentalSetup: 250 g/ha, plus safener cloquintocet-mexyl (CQC) applied at 50 g/ha, 100%=total damage to plant, 0%=no damage
Answers are plain numbers, in %.

Some compounds with recorded Post-emergence herbicidal activity against wheat (percentage phytotoxicity), +CQC:
compound	dataValue
Cc1cc(-c2ncccc2F)cc(C)c1C1C(=O)CC(CCNC(=O)Nc2ccccn2)C1=O.Cl (centres unmarked) [Compound A24]	70
Cc1cc(C)c(C2C(=O)CC(CCNC(=O)NC(=O)c3ccc(C(F)(F)F)cc3)C2=O)c(C)c1 (centres unmarked) [Compound A72]	70
Cc1cc(C)c(C2C(=O)CC(CCNC(=S)Nc3ccc(F)cc3)C2=O)c(C)c1 (centres unmarked) [Compound A89]	0
Cc1cc(C)c(C2C(=O)CC(CCNS(=O)(=O)c3ccc(Cl)cc3Cl)C2=O)c(C)c1 (centres unmarked) [Compound A84]	0
Cc1cc(C)c(C2C(=O)CC(CCNC(=O)NC(=O)c3c(Cl)cccc3Cl)C2=O)c(C)c1 (centres unmarked) [Compound A52]	30
Cc1cc(C)c(C2C(=O)CC(CCNC(=O)NC(=O)c3cc(C(F)(F)F)ccc3Cl)C2=O)c(C)c1 (centres unmarked) [Compound A62]	70
CC#Cc1cc(C)c(C2C(=O)CC(CCNC(=O)NC(C)(C)C)C2=O)c(C)c1 (centres unmarked) [Compound A23]	80

// moving on: another record for Post-emergence herbicidal activity against wheat (percentage phytotoxicity), +CQC
Checklist item: Post-emergence herbicidal activity against wheat (percentage phytotoxicity), +CQC tested on wheat, entry Cc1cc(C)c(C2C(=O)CC(CCNC(=O)NC(=O)c3ccc(F)cc3F)C2=O)c(C)c1 (centres unmarked) [Compound A53] , value?
80

src = patent US10301295B2
